Target Or Test System: IDH1^R132H (Homo sapiens, UniProt O75874, R132H)
Sequence (O75874 whole entry R132H): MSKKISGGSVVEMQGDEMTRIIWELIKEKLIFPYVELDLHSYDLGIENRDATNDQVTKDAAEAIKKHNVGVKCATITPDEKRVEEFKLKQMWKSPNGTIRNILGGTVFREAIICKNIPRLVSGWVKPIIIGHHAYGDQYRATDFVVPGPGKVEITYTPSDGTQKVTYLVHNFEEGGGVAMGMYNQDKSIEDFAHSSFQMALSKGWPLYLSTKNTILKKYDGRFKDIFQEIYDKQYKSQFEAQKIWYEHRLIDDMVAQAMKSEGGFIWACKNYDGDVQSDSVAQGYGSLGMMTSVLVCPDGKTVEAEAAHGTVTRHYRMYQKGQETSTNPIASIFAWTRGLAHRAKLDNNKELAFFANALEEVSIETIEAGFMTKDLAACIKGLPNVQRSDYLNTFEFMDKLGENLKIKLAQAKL
Assay Text: Affinity of IDH1 R132H for NADPH
Readout Name: Kd

Give the measured Kd of NC(=O)C1=CN([C@@H]2O[C@H](COP(=O)(O)OP(=O)(O)OC[C@H]3O[C@@H](n4cnc5c(N)ncnc54)[C@H](OP(=O)(O)O)[C@@H]3O)[C@@H](O)[C@H]2O)C=CC1 .
~50 nM

// provenance: paper PMC11385386
